assay: Cytotoxicity against human MT4 cells assessed as reduction in cell viability after 5 days by MTT assay
Type: cell-based
Classify: Satisfied when CC50 at 120 h is strictly less than 60 µM; Not satisfied when CC50 at 120 h is not.

>  <compound>
CCCN(C)c1nc(C(OC)c2c(F)cccc2Cl)c(C)c(=O)[nH]1 (stereo unspecified)

>  <category>
Not satisfied

$$$$
>  <compound>
COC(c1nc(NC(C)C)[nH]c(=O)c1C)c1c(F)cccc1Cl (stereo unspecified)

>  <category>
Not satisfied

$$$$
>  <compound>
CCCN(C)c1nc(C(OC)c2c(F)cccc2F)c(C)c(=O)[nH]1 (stereo unspecified)

>  <category>
Not satisfied

$$$$
>  <compound>
COC(c1nc(NC2CCCC2)[nH]c(=O)c1C)c1c(F)cccc1Cl (stereo unspecified)

>  <category>
Not satisfied

$$$$
>  <compound>
Cc1c(C(C)c2c(F)cccc2F)nc(NC(C)C)[nH]c1=O (stereo unspecified)

>  <category>
Not satisfied

$$$$
>  <compound>
CCC(C)Sc1nc(C(OC)c2c(F)cccc2Cl)c(C)c(=O)[nH]1 (stereo unspecified)

>  <category>
Satisfied

$$$$
>  <compound>
CCCNc1nc(C(C)c2c(F)cccc2F)c(C)c(=O)[nH]1 (stereo unspecified)

>  <category>
Satisfied

$$$$
>  <compound>
CCC(C)Sc1nc(C(OC)c2c(F)cccc2F)c(C)c(=O)[nH]1 (stereo unspecified)

>  <category>
Satisfied

$$$$
>  <compound>
COC(c1nc(SC2CCCC2)[nH]c(=O)c1C)c1c(F)cccc1Cl (stereo unspecified)

>  <category>
Satisfied

$$$$
>  <compound>
CCCNc1nc(C(OC)c2c(F)cccc2F)c(C)c(=O)[nH]1 (stereo unspecified)

>  <category>
Not satisfied

$$$$
>  <compound>
CCC(C)Sc1nc(C(OC)c2c(Cl)cccc2Cl)c(C)c(=O)[nH]1 (stereo unspecified)

>  <category>
Satisfied

$$$$
>  <compound>
Cc1c([C@@H](C)c2c(F)cccc2F)nc(SC2CCCC2)[nH]c1=O

>  <category>
Satisfied

$$$$
>  <compound>
CCCN(C)c1nc(C(C)c2c(F)cccc2F)c(C)c(=O)[nH]1 (stereo unspecified)

>  <category>
Not satisfied

$$$$
>  <compound>
Cc1c(C(C)c2c(F)cccc2F)nc(NC2CCCC2)[nH]c1=O (stereo unspecified)

>  <category>
Not satisfied

$$$$
>  <compound>
CCCN(C)c1nc(C(OC)c2c(Cl)cccc2Cl)c(C)c(=O)[nH]1 (stereo unspecified)

>  <category>
Not satisfied

$$$$
>  <compound>
CO[C@@H](c1nc(SC(C)C)[nH]c(=O)c1C)c1c(F)cccc1Cl

>  <category>
Not satisfied

$$$$
>  <compound>
COC(c1nc(SC(C)C)[nH]c(=O)c1C)c1c(Cl)cccc1Cl (stereo unspecified)

>  <category>
Satisfied

$$$$
>  <compound>
COC(c1nc(SC2CCCC2)[nH]c(=O)c1C)c1c(Cl)cccc1Cl (stereo unspecified)

>  <category>
Satisfied

$$$$
>  <compound>
COC(c1nc(NC2CCCC2)[nH]c(=O)c1C)c1c(F)cccc1F (stereo unspecified)

>  <category>
Not satisfied

$$$$
>  <compound>
CCCNc1nc(C(OC)c2c(F)cccc2Cl)c(C)c(=O)[nH]1 (stereo unspecified)

>  <category>
Not satisfied

$$$$
>  <compound>
CCCNc1nc(C(OC)c2c(Cl)cccc2Cl)c(C)c(=O)[nH]1 (stereo unspecified)

>  <category>
Satisfied

$$$$
>  <compound>
COC(c1nc(NC2CCCC2)[nH]c(=O)c1C)c1c(Cl)cccc1Cl (stereo unspecified)

>  <category>
Satisfied

$$$$
>  <compound>
CCCN(C)c1nc([C@H](OC)c2c(Cl)cccc2Cl)c(C)c(=O)[nH]1

>  <category>
Not satisfied

$$$$
>  <compound>
COC(c1nc(SC(C)C)[nH]c(=O)c1C)c1c(F)cccc1Cl (stereo unspecified)

>  <category>
Not satisfied

$$$$
>  <compound>
COC(c1nc(SC2CCCC2)[nH]c(=O)c1C)c1c(F)cccc1F (stereo unspecified)

>  <category>
Satisfied

$$$$
>  <compound>
Cc1c([C@H](C)c2c(F)cccc2F)nc(SC2CCCC2)[nH]c1=O

>  <category>
Satisfied

$$$$
>  <compound>
CCCN(C)c1nc([C@@H](OC)c2c(Cl)cccc2Cl)c(C)c(=O)[nH]1

>  <category>
Satisfied

$$$$
>  <compound>
CCC(c1nc(SC2CCCC2)[nH]c(=O)c1C)c1c(F)cccc1F (stereo unspecified)

>  <category>
Satisfied

$$$$
>  <compound>
COC(c1nc(NC(C)C)[nH]c(=O)c1C)c1c(F)cccc1F (stereo unspecified)

>  <category>
Not satisfied

$$$$
>  <compound>
Cc1cc(C#N)cc(C)c1Oc1nc(Nc2ccc(C#N)cc2)nc(N)c1Br

>  <category>
Satisfied

$$$$
>  <compound>
COC(c1nc(NC(C)C)[nH]c(=O)c1C)c1c(Cl)cccc1Cl (stereo unspecified)

>  <category>
Not satisfied

$$$$
